# systemTested: T1, recombinant human CD47 extracellular domain (ECD), His-tagged, monomer (human, UniProt Q08722 19-141)
# T1 construct: C-terminal 6xHis tag; monomeric fraction from Superdex 200; also called human CD47 ECD; CD47-ECD monomer
# testSummary: ProteOn SPR; mAb captured, ECD monomer as analyte
Quick rule for you: Kd under 3 nM gets 1.0, anything else gets 0.0.

Example results:
# binder, labelValue
rows = [
    ("C47B235 (antibody, V domains shown, human IgG2sigma/kappa) VH: EVQLVQSGAEVKKPGESLKISCKGSGYSFDDYWISWVRQMPGKGLEWMGIIYPGDSDTRYSPSFQGQVTISADKSISTAYLQWSSLKASDTAVYYCARVGRFASHQLDYWGQGTLVTVSS VL: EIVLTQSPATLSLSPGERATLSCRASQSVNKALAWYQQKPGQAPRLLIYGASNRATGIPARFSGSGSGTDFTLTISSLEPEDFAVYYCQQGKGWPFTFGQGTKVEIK", 1.0),
    ("C47B241 (antibody, V domains shown, human IgG2sigma/kappa) VH: EVQLVQSGAEVKKPGESLKISCKGSGYSFDDSWIGWVRQMPGKGLEWMGIIYPGDSDTRYSPSFQGQVTISADKSISTAYLQWSSLKASDTAVYYCARVGRFASHQLDYWGQGTLVTVSS VL: EIVLTQSPATLSLSPGERATLSCRASQSVSNRLAWYQQKPGQAPRLLIYGASNRATGIPARFSGSGSGTDFTLTISSLEPEDFAVYYCQQGRSWPFTFGQGTKVEIK", 1.0),
    ("C47B237 (antibody, V domains shown, human IgG2sigma/kappa) VH: EVQLVQSGAEVKKPGESLKISCKGSGYSFTSYWIGWVRQMPGKGLEWMGIIYPGDSDTRYSPSFQGQVTISADKSISTAYLQWSSLKASDTAMYYCARVGRFASHQLDYWGQGTLVTVSS VL: EIVLTQSPATLSLSPGERATLSCRASQSVNNRLAWYQQKPGQAPRLLIHWASTRAIGIPARFSGSGSGTDFTLTISSLEPEDFAVYYCQQGASWPFTFGQGTKVEIK", 1.0),
    ("C47B220 (antibody, V domains shown, human IgG2sigma/kappa) VH: EVQLVQSGAEVKKPGESLKISCKGSGYSFTDSWIGWVRQMPGKGLEWMGIIYPGDSDTRYSPSFQGQVTISADKSISTAYLQWSSLKASDTAVYYCARVGRFASHQLDYWGQGTLVTVSS VL: EIVLTQSPATLSLSPGERATLSCRASQSVSNRQAWYQQKPGQAPRLLIHSASNRATGIPARFSGSGSGTDFTLTISSLEPEDFAVYYCQQGRSWPFTFGQGTKVEIK", 0.0),
]

Field: next binder
Problem: For C47B218 (antibody, V domains shown, human IgG2sigma/kappa) VH: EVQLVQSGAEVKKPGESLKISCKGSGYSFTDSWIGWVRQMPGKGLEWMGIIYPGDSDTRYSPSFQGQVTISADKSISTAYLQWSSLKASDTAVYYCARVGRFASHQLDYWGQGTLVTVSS VL: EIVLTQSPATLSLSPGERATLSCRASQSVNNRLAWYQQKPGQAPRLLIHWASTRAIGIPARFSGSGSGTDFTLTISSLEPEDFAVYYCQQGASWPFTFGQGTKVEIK , is the recorded Kd below the cut-off of 3 nM?
Solution: 1.0

Reference for the values: patent US20180250395A1
